Biological target: HPV 16 E6 C-terminal PL peptide (TQL), biotinylated (HPV 16)
Experiment: G assay, HPV16 E6 PL peptide titrated against a constant amount of GST-PDZ
measurement_kind: pEC50
Field pEC50 (float): negative decimal logarithm of the concentration in molar.

Kindly note the recorded pEC50 for GST-VARTUL (PDZ domain not stated) (from UniProt Q14160 720-955) , which is 6.03

Data provenance is patent US20040018487A1.
